Source of measurements: patent US11702429B2

Consider the following molecules and their measured IC50 readings.
Biological target: mTORC2 (Homo sapiens, UniProt P42345+P62942)
Construct: endogenous in cells; host or cells: PC3 cells (human prostate adenocarcinoma)
Sequence (P62942 2-108 limits assumed, other chains not shown): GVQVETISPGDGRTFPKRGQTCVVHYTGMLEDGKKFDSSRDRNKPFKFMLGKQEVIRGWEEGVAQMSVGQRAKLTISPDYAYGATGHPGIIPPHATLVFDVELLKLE
Assay: Inhibition assay for mTORC2: phosphorylation of pAkt at Ser473, AlphaLISA in PC3 cells
Type: cell-based
Conditions: read-out: pIC50 mTORC2 (converted)
Description: The IC50s of the inhibition of mTORC1 and mTORC2 were determined in vitro by determining the phosphorylation of pS6K at position Thr389 (mTORC1 inhibition) and pAkt at Ser473 (mTORC2 inhibition). In vitro studies were performed with AlphaLISA® technology using PC3 cells (Prostate Adenocarcinoma; Human (Homo sapiens)). The cells were seeded in 96 well plates and were treated for 24 hours with the different compounds. […]

molecule	system-under-test	IC50
CO[C@@H]1C[C@H](C[C@@H](C)[C@@H]2CC(=O)[C@H](C)/C=C(\C)[C@@H](O)[C@@H](OC)C(=O)[C@H](C)C[C@H](C)/C=C/C=C/C=C(\C)C(OC(C)C)C[C@@H]3CC[C@@H](C)[C@@](O)(O3)C(=O)C(=O)N3CCCCC3C(=O)O2)CC[C@H]1O (stereo partly shown) [Compound 208]	mTORC2 (Homo sapiens, UniProt P42345+P62942)	1 to 10 µM
COC1C[C@@H]2CC[C@@H](C)[C@@](O)(O2)C(=O)C(=O)N2CCCCC2C(=O)O[C@H]([C@H](C)C[C@@H]2CC[C@@H](OCCN3CCOCC3)[C@H](OC)C2)CC(=O)[C@H](C)/C=C(\C)[C@@H](O)[C@@H](OC)C(=O)[C@H](C)C[C@H](C)/C=C/C=C/C=C/1C (stereo partly shown) [Compound 325]	mTORC2 (Homo sapiens, UniProt P42345+P62942)	< 1 µM
COC1C[C@@H]2CC[C@@H](C)[C@@](O)(O2)C(=O)C(=O)N2CCCCC2C(=O)O[C@H]([C@H](C)C[C@@H]2CC[C@@H](OC(=O)NCCc3ccncc3)[C@H](OC)C2)CC(=O)[C@H](C)/C=C(\C)[C@@H](O)[C@@H](OC)C(=O)[C@H](C)C[C@H](C)/C=C/C=C/C=C/1C (stereo partly shown) [Compound 334]	mTORC2 (Homo sapiens, UniProt P42345+P62942)	< 1 µM
COCCCO[C@@H]1CC[C@@H](C[C@@H](C)[C@@H]2CC(=O)[C@H](C)/C=C(\C)[C@@H](O)[C@@H](OC)C(=O)[C@H](C)C[C@H](C)/C=C/C=C/C=C(\C)C(OC)C[C@@H]3CC[C@@H](C)[C@@](O)(O3)C(=O)C(=O)N3CCCCC3C(=O)O2)C[C@H]1OC (stereo partly shown) [Compound 308]	mTORC2 (Homo sapiens, UniProt P42345+P62942)	< 1 µM
